Hello, the source for this data is PubChem BioAssay (NCI), in case you need it.

Protocol Summary: NCI Yeast Anticancer Drug Screen. Data for the mec2-1 strain (AID 157)
Measurement Setup: S. cerevisiae mec2-1 strain, at 50.0 µM, hits give high values
The panel holds about 79,000 compounds, 15% with a hit somewhere; the sample as a whole holds those more often.
Assay Metric: growth inhibition (%)

| Compound | Value Units | Test Value |
| --- | --- | --- |
| Cc1cc2nc(-c3ccccc3O)[nH]c2cc1C | % | -29.9 |
| COc1cc(-c2ccc([NH2+][B-](F)(F)F)c(OC)c2)ccc1[NH2+][B-](F)(F)F | % | -2.05 |
| CN1CCC(c2ccccc2)(c2ccccc2)OC1 | % | 6.85 |
| CCOC(=O)c1c(C)c2c(n1C)CC/C(=C\N1CCN(c3ccccc3)CC1)C2=O | % | -1.55 |
| CC(=O)C1=C(C)NC2C=CC=CN12 (stereo unspecified) | % | -6.9 |
| NC12CC3CC(C1)CC(C(=O)O)(C3)C2 | % | 3.05 |
| c1cc(N2CCOCC2)ccc1Cc1ccc(N2CCOCC2)cc1 | % | 0.9 |
| CC1(C)CN(CCO)C(C)(C)CN1 | % | 16.3 |
| Cc1ccccc1S(=O)(=O)Nn1cnc2ccc(S(=O)(=O)Nc3ccc(Cl)cc3)cc2c1=O | % | 0.25 |
| CN(C)S(=O)(=O)C(c1ccccc1)C(c1ccccc1)S(=O)(=O)N(C)C (stereo unspecified) | % | -4.4 |
| Cc1cccc(C)c1NC(=O)OC(C)C | % | 5.65 |
| Cc1cccc2c1C1C(CC2=O)C(=O)c2ccccc2C1C (stereo unspecified) | % | -17.8 |
| O=C(NO)/C(CC(=O)c1ccccc1O)=N\O | % | -21.6 |
| Nc1nc(N)nc(C2CC3C=CC2C3)n1 (stereo unspecified) | % | -13.9 |
| CCOC(=N)CC(=O)Nc1ccccc1CC | % | -0.05 |
| COCCCNC1=C(C#N)C(=O)NC2(CCCC2)S1 | % | -35.5 |
| CN1CCN(c2nc3c(c(=O)n(C)c(=O)n3C)n2C)CC1 | % | 5.35 |
| O=C1CCC(=O)c2cc(Br)ccc2N1 | % | 11.8 |
| CCc1cnccc1C | % | -14.9 |
| CCC1(CC)C(=O)N(C(=O)c2ccc(C)cc2)N(C(=O)c2ccc(C)cc2)C1=O | % | -6.1 |
| CCCC(C)C(=O)OC(C)CC(C)C (stereo unspecified) | % | 15.9 |
| CCCOC(=O)c1ccnc(C(=O)OCCC)c1 | % | 4.85 |
| CCOC(=O)/C=C\SCCC(=O)O | % | 11.1 |
| CCc1cccc(CC)c1NC(=S)NC(=O)c1ccc(Br)cc1 | % | -1.25 |
| CCC(c1ccccc1)C(C(=O)O)C(=O)O (stereo unspecified) | % | -5.35 |
| COC(=O)CCNC(=O)OCc1ccccc1 | % | 30 |

====

Protocol Summary: NCI Yeast Anticancer Drug Screen. Data for the sgs1 mgt1 strain (AID 161);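 note: 0% = growth of cultures given vehicle only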
Measurement Setup: S. cerevisiae sgs1 mgt1 strain, at 50.0 µM, hits give high values
This is part of a sample that, as a whole, favours compounds with a hit. Of some 79,000 tested, about 15% had one in any assay. Activity calls are given as the source filed them. Rule as the data show it: active = growth inhibition above about 70%; inactive = the rest.
Listed here are compounds together with their documented growth inhibition.

| Compound | growth inhibition |
| --- | --- |
| O=C(Nc1ccc(Cl)cc1)Nc1nnc(-c2ccccc2Br)o1 | 19.2% (inactive) |
| CC1CC(C#N)=C(NC#N)NC1=O (stereo not drawn) | 19.2% (inactive) |
| CCCCc1ccc(Nc2nc(=S)c3[nH]cnc3[nH]2)cc1 | 32.2% (inactive) |
| COc1ccc(Nc2nc(NS(=O)(=O)c3cc(C)c(Cl)cc3S)n[nH]2)cc1 | 3.65% (inactive) |
| COCN1COCN(C)C1=O | -1.55% (inactive) |
| Cc1cc(=O)c2c(Br)ccc(Br)c2[nH]1 | -1.1% (inactive) |
| CC(=O)Nc1ccc2nc(C)cc(Cl)c2c1 | 9.4% (inactive) |
| CCOc1ccccc1NC(=O)C(=O)C(/C(=N/N)C(=O)OC)c1nc2ccc([N+](=O)[O-])cc2[nH]c1=O (stereo not drawn) | 5.7% (inactive) |
| COc1nc(SC)nc2[nH]ccc12 | -4.2% (inactive) |
| CCC1OC(=O)CC(O)C(C)C(OC2OC(C)CC(N(C)C)C2O)C(CC=O)CC(C)C(=O)/C=C/C2(C)OC2C1C (stereo not drawn) | -11.3% (inactive) |
| CCOC(=O)/C(C#N)=C/c1ccc(-c2cc(C(F)(F)F)cc(C(F)(F)F)c2)o1 | -8% (inactive) |
| CN1C(C(=O)Nc2ccccn2)=C(O)c2ccccc2S1(=O)=O | 5.1% (inactive) |
| O=c1oc2ccccc2c(N2CCCCC2)c1Cl | 12.3% (inactive) |

====

Protocol Summary: NCI Yeast Anticancer Drug Screen. Data for the sgs1 mgt1 strain (AID 161);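 note: 0% = growth of cultures given vehicle only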
Measurement Setup: S. cerevisiae sgs1 mgt1 strain, at 50.0 µM, hits give high values
This is part of a sample that, as a whole, favours compounds with a hit. Of some 79,000 tested, about 15% had one in any assay.
Listed here are compounds together with their documented growth inhibition.

| Compound | growth inhibition, % |
| --- | --- |
| O=C(N/N=C/c1cccc(F)c1)c1ccncc1 | -2.05 |
| Nc1ccc(S(=O)(=O)S(=O)(=O)c2ccc(N)cc2)cc1 | -3.55 |
| Cc1nnnn1[C@H]1C(C#N)CC2[C@@H]3CCC4=Cc5nnnn5CC[C@]4(C)C3CC[C@@]21C (stereo partly specified) | 23 |
| CCCO[C@@H]1[C@@H](OC(C)=O)[C@@H](OC(C)=O)C(C)(C)/C=C/[C@H](C)C(=O)[C@@]2(OC(C)=O)C[C@@](C)(OC(C)=O)[C@H](OC(C)=O)[C@@H]2[C@H]2OC(=O)CC[C@@]12OC(=O)c1ccccc1 | -56.5 |
| O=C(c1ccc(Br)cc1)C(C(c1ccccc1)N1CCOCC1)N1CCOCC1 (stereo unspecified) | -9.6 |
| Cc1ccccc1CCOC(=O)c1cc([N+](=O)[O-])cc([N+](=O)[O-])c1 | -10.9 |
| Cn1c(=O)c(-c2ccccc2)c(O)c2ccccc21 | -2.4 |
| CCOC(=O)c1nnsc1NC(=O)Nc1ccc(Cc2ccc(NC(=O)Nc3snnc3C(=O)OCC)cc2)cc1 | 12.2 |
| C[N+](C)(C)CC(=O)N/N=C(/Cc1nc2c3c(ccc2[nH]c1=O)C(=O)c1ccccc1C3=O)C(=O)Nc1ccc(Cl)c(Cl)c1 | -7.8 |
| Cc1cccc(/C=N/NC(=S)NCCc2ccccn2)n1 | 14.2 |
| C=CCCC1CN2CCc3cc(OC)c(OC)cc3C2CC1=O (stereo unspecified) | 10.6 |
| N#C/C(=C\c1ccccc1Br)C(=O)c1ccccc1 | -3.35 |
| COc1ccccc1NC(=O)CC(=O)n1nc(C)c(N=Nc2ccccc2C(=O)O)c1C | -17.6 |
| CCCCNC(=O)/N=C/c1c(O)c2ccccc2oc1=O | -13.4 |
| Cc1ccc(/S(Cc2ccccc2)=N\S(=O)(=O)c2ccc(C)cc2)cc1 (stereo unspecified) | -60.9 |
| Oc1c(Cl)c(Cl)c(O)c2ccccc12 | 7.15 |
| O=C(O)c1cc(=O)c2ccccc2[nH]1 | 1.35 |
| CCCCc1ccc(-n2c(C)nc3[nH]cc(C)c3c2=N)cc1 | -3.5 |
| CCOC(=O)c1cnc(=S)[nH]c1N | -19.2 |
| C1=CCc2cc3c(cc2=C1)C=c1ccccc1=3 | -11.2 |
| CC1(C)OC(=O)N=C1c1ccc(Cl)cc1 | -19.8 |

====

Protocol Summary: NCI Yeast Anticancer Drug Screen. Data for the sgs1 mgt1 strain (AID 161);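 note: 0% = growth of cultures given vehicle only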
Measurement Setup: S. cerevisiae sgs1 mgt1 strain, at 50.0 µM, hits give high values
Compounds without any hit were thinned out: in the full panel of roughly 79,000, 15% have a hit.
Listed here are compounds together with their documented growth inhibition.
Assay Metric: growth inhibition (%)

| Compound | Value Units | Test Value |
| --- | --- | --- |
| Cc1ccccc1NCc1ccccc1[N+](=O)[O-] | % | 14.8 |
| CC(=O)[C@@]1(O)CC[C@H]2[C@@H]3C[C@H](C)C4=CC(=O)C=C[C@]4(C)[C@@]3(F)[C@@H](O)C[C@@]21C | % | -11.1 |
| CCN(CC)C(=O)CS(=O)(=O)c1ccc(N)cc1 | % | 2 |
| COCn1ccnc1C(=O)c1ccccc1 | % | -9.65 |
| O=C(Nc1ccccc1)Sc1ccc(Cl)cc1 | % | -22.5 |
| NCC(=O)NC1(C(=O)NCC(=O)O)CCCC1 | % | -20.9 |
| CCN(CC)C(=O)CCC1CCCCC1 | % | -11.9 |
| O=C1C2(CCCC13N=NCC3c1ccccc1)N=NCC2c1ccccc1 (stereo unspecified) | % | -0.95 |
| CC(C)(C)c1ccc(-c2cc3nc(-c4ccccc4)cc(=O)n3[nH]2)cc1 | % | 10.5 |
| CC(=O)OC(OC(C)=O)c1cccc2ccccc12 | % | -5.8 |
| CCS(=O)c1ncc2cnccn12 (stereo unspecified) | % | 15.4 |
| Cn1cc(NC(=O)c2cc(NC(=O)CCCCCC(=O)Nc3cc(C(=O)Nc4cc(C(=O)NCCC(=N)N)n(C)c4)n(C)c3)cn2C)cc1C(=O)NCCC(=N)N | % | -17.6 |
| C[S+](C)CC(=O)c1ccccc1O | % | 2.2 |
| COc1nc(SC)nc2c1cnn2C1OC(C(O)CO)C(OC)C1O (stereo unspecified) | % | 3.35 |
| CC(=O)Nc1ccc(F)c(F)c1 | % | 3.2 |
| O=C1C=C(C2=CC(=O)C(=O)c3ccccc32)c2ccccc2C1=O | % | 6.55 |
| O=C1c2ccccc2-c2ccc(N3C(=O)c4c(Br)c(Br)c(Br)c(Br)c4C3=O)cc21 | % | 12.9 |
| CCCCCCCCCCC1OC(C)C(C)O1 (stereo unspecified) | % | -7.3 |
| O=c1[nH]/c(=C/c2ccc3c(c2)OCO3)c(=O)[nH]/c1=C/c1ccc2c(c1)OCO2 | % | -22.8 |
| CSc1nc(N)n2nc(C3CC3)cc2n1 | % | 16.1 |
| N#CC(c1ccccc1)N(CCc1ccccc1)C(=O)c1ccccc1 (stereo unspecified) | % | -23.4 |
| CC(=O)Nc1cccc(C)n1 | % | 1.6 |
| CCCCCCCCCCCCCCCCCC#N | % | -2.9 |
| O=C1C=CC2(C=C1)OCC(=O)O2 | % | 3.25 |
| CC(C)(C)c1ccc(P(=O)(O)C(C)(C)C)cc1 | % | -15.5 |
| Oc1ccc(N=Nc2ccccc2)c(O)c1 | % | 43.5 |
| CC(CC[C@@]1(C)C(=O)CCC2O[C@]21C)[C@H]1C[C@@H](c2ccoc2)OC1=O (stereo partly specified) | % | -5.4 |
| CCOC(=O)CSC(=O)NCCCl | % | -2.8 |
| Cc1ccc(-c2oc3ccccc3c(=O)c2O)cc1 | % | 2.1 |
| [N-]=[N+]=Nc1ccccc1C(=O)N1C(=O)c2ccccc2C(=O)N(C(=O)c2ccccc2N=[N+]=[N-])c2ccccc21 | % | 0.8 |
| Cc1cc(C(=O)O)c(C(=O)O)c(=O)[nH]1 | % | 0.3 |
| C[N+](C)(C)C1CCC1 | % | -1.75 |
| C1=CC2C3CSCC3C1C1CC21 (stereo unspecified) | % | -4.4 |
| Oc1cc2cc(-c3ccccc3)[nH]c2c2ccccc12 | % | -1.3 |
| CCCCNc1ccc([N+](=O)[O-])cc1[N+](=O)[O-] | % | 18.4 |
| COc1ccc(C2OC3=Nc4ccccc4NC3C2=O)cc1OC (stereo unspecified) | % | 20.7 |
| Cc1ccc(S(=O)(=O)OC2C3OC(C)(C)OC3OC2C(c2cc(O)c3c(c2O)C(=O)c2ccccc2C3=O)c2cc(O)c3c(c2O)C(=O)c2ccccc2C3=O)cc1 (stereo unspecified) | % | -11.6 |
| CCOC(=O)N/N=C(\C)c1ccc(OC)cc1 | % | 20.1 |
| C[N+](C)(C)CC(=O)N/N=C(/Cc1cc(=O)oc2cc(O)ccc12)C(=O)Nc1ccc(Cl)cc1 | % | -11.3 |
| CC(C)=CCC\C(C)=C/C=C/C(C)=C\C=C\C(C)=C/C=C/C=C(C)\C=C\C=C(C)/C=C/C=C(/C)CCC=C(C)C | % | -29 |
| COc1ccc(NC(=O)C(=O)c2c(O)c3ccc(O)cc3oc2=O)c([N+](=O)[O-])c1 | % | 1 |
| O=C1CSc2nc3c(Cl)cc(Cl)cc3c(=O)n21 | % | 54.1 |
| CCNS(=O)(=O)c1cc(C(=O)O)cc(C(=O)O)c1 | % | -4.95 |
| O=c1[nH]c2cc([N+](=O)[O-])ccc2nc1/C=C(\O)c1ccccc1 | % | -14.3 |
| COc1ccc(NC(=O)CCC(=O)CC(=O)c2ccc(C)cc2)cc1 | % | 39.6 |
| COc1cc(OC)c2c3c(OC)cc(OC)c4c(=O)c(O)c(C[C@@H](C)O)c(c5c(C[C@@H](C)O)c(O)c(=O)c1c25)c43 | % | 37 |
